- TGT: Ubiquitin carboxyl-terminal hydrolase 10 (Homo sapiens)
- PROTOCOL_DETAILS: ubiquitin-specific protease 10 DUB inhibitors, concentration-effect, biochemical, verification of primary screen actives (AID 1645863);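 note: potency values describe inhibition of USP10 cleavage of a fluorogenic ubiquitin substrate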
- SETTINGS: USP10 deubiquitinase enzymatic assay
Activity calls are given as the source filed them. The rule behind the calls is not given here.
Pick one and only one: true (active), false (inactive)

Qu. Short answer needed: outcome of this test for Nc1ncc(-c2ccc(F)cc2)c(C2CCCN(C(=O)c3ccn[nH]3)C2)n1 (stereo not drawn) ?
Ans. false

Qu. Item: Cc1ccc(C(=O)O)cc1NC(=O)C(Sc1cccc(NC(=O)c2ccccc2C)c1)c1ccccc1 (stereo not drawn)
Ans. false

Qu. Item: COc1ccc(Sc2nc3ccccc3n3cnnc23)cc1
Ans. false

Qu. Item: CNC(=O)c1cc2nc(N(C)C)n(-c3ccc(F)cc3)c2s1
Ans. false

Qu. Item: O=C(O)C1C(C(=O)Nc2ccccc2)C2(c3ccccc3)C(=O)C1(c1ccccc1)C(c1ccccc1)=C2c1ccccc1 (stereo not drawn)
Ans. true

Qu. Item: COc1ccc(NC(=O)Cn2cc(C(=O)c3ccccc3)c(=O)c3cc(Cl)ccc32)cc1OC
Ans. true

Qu. Item: COc1c(O)cc(CC(=O)O)c(C(C)=O)c1O
Ans. true

Qu. Item: C[C@H](NC(=O)Cc1ccccc1F)c1nc2cc(-c3ccccc3F)ncn2n1
Ans. true

Qu. Item: Cc1ccccc1-c1nnc2sc(COc3ccc(Cl)cc3)nn12
Ans. false

Qu. Item: Cc1ccc(NC(=O)c2cc(-c3ccccn3)nc3c(Cl)cccc23)nc1
Ans. false

Qu. Item: CC1OC2CC(O)C1(O)C1=C2C(O)=C(C(N)=O)C(=N)C1=O (stereo not drawn)
Ans. true

Qu. Item: CCOC(=O)N1CCN(C(=O)c2ccc(NCc3ccc(F)cc3)c(S(=O)(=O)Nc3cccc(C(F)(F)F)c3)c2)CC1
Ans. true

Qu. Item: Cc1sc(NC(=O)Cn2nnc3ccccc32)nc1-c1ccc2c(c1)CCN2C(=O)c1ccccc1F
Ans. true

Qu. Item: COc1ccc(NC(=O)c2cc(-c3cccnc3)n[nH]2)cc1Cl
Ans. true

Qu. Item: CCc1nc(SCC(=O)Nc2cc(Cl)ccc2C)c2oc3ccccc3c2n1
Ans. true

Qu. Item: O=C(Nc1ccc(-c2cn3ccsc3n2)cc1)c1ccc(Cl)c([N+](=O)[O-])c1
Ans. true

Qu. Item: O=C(COc1cccc(-c2noc(-c3ccc([N+](=O)[O-])cc3)n2)c1)Nc1ccccc1
Ans. false

Qu. Item: O=C(Nc1cccc(Cl)c1)c1cc(-c2cccnc2)n[nH]1
Ans. false

Qu. Item: Cc1nc(N2CCCC2)ncc1-c1cc(=O)[nH]c(Nc2ccc(Cl)cc2Cl)n1
Ans. true

Qu. Item: COc1ccc(NC(=O)Cn2c(=O)n(CCCC(=O)NC3CCCC3)c(=O)c3cc(Cl)ccc32)c(OC)c1
Ans. true

Qu. Item: Cc1ccc(-c2nc(NC(=O)COc3ccc(Cl)cc3)no2)cc1
Ans. true

Qu. Item: CC(NC(=O)c1nc2n(n1)-c1ccccc1S(=O)(=O)N2)c1cc2ccccc2o1 (stereo not drawn)
Ans. true

Qu. Item: CC(=O)c1cccc(NC(=O)COC(=O)c2sc3cc(F)ccc3c2Cl)c1
Ans. false

Qu. Item: CC(=O)O[C@@H](C/C=C(\C)C(=O)O)[C@@H](C)[C@H]1C[C@H](OC(C)=O)[C@@]2(C)C3=CC[C@H]4C(C)(C)[C@H](O)CC[C@]4(C)C3=CC[C@]12C
Ans. true

Qu. Item: COCCn1c(=O)[nH]c2cc(C(=O)NCCNc3ccc([N+](=O)[O-])cc3C#N)ccc2c1=O
Ans. true

Qu. Item: O=C1c2c(O)c(Cl)cc3c2[C@@]2(Oc4ccc(O)c5c4[C@]3(O2)[C@@H]2O[C@@H]2C5=O)[C@@H]2O[C@H]12
Ans. true

Qu. Item: COc1cc(NS(=O)(=O)c2ccc(NC(=O)COc3ccc(C)cc3Br)cc2)nc(OC)n1
Ans. true

Qu. Item: COc1ccc(NC(=O)Cn2c(=O)n(CCCCC(=O)NCc3ccco3)c(=O)c3ccccc32)cc1Cl
Ans. false

Qu. Item: Cc1sc(NC(=O)c2ccc(S(=O)(=O)N(C)Cc3ccccc3)cc2)c(C(N)=O)c1C
Ans. false

Qu. Item: CCc1ccc(NC(=O)C(C)OC(=O)/C=C/c2ccc(S(=O)(=O)Nc3cccc(S(N)(=O)=O)c3)cc2)cc1 (stereo not drawn)
Ans. true

Qu. Item: O=C(Nc1ccc(F)cc1)Nc1ccccc1OCc1cc(=O)n2ccccc2n1
Ans. true

Qu. Item: COc1ccc(-c2onc(C)c2C)cc1S(=O)(=O)NCc1ccc(F)cc1
Ans. false

Qu. Item: CC(C)[C@H]1CC[C@@]2(CO2)[C@H]2C(=O)OCC(C(=O)O)=C[C@H]12
Ans. true

Qu. Item: COc1cccc(NC(=O)c2cnc(N3CCCC3)nc2C)c1
Ans. false

Qu. Item: COc1ccc(Cl)cc1NC(=O)Cn1c(=O)n(CCC(=O)NC2CCCC2)c(=O)c2ccccc21
Ans. false

Qu. Item: COc1ccc(NC(=O)Cn2c(C)cc(=O)n3nc(-c4cccc(C)c4)nc23)cc1
Ans. true

Qu. Item: CC(C)(C)c1ccc(C2CC(=O)C3=C(C2)Nc2ccccc2N(C(=O)CCC(=O)O)C3c2cccc([N+](=O)[O-])c2)cc1 (stereo not drawn)
Ans. false

Qu. Item: CCOC(=O)C1CCN(C(=O)c2ccc3c(c2)NC(=O)C2CCCN32)CC1 (stereo not drawn)
Ans. false
